- MEASURED_ON: human 5-HT2C receptor (Homo sapiens)
- Sequence (P28335 33-458): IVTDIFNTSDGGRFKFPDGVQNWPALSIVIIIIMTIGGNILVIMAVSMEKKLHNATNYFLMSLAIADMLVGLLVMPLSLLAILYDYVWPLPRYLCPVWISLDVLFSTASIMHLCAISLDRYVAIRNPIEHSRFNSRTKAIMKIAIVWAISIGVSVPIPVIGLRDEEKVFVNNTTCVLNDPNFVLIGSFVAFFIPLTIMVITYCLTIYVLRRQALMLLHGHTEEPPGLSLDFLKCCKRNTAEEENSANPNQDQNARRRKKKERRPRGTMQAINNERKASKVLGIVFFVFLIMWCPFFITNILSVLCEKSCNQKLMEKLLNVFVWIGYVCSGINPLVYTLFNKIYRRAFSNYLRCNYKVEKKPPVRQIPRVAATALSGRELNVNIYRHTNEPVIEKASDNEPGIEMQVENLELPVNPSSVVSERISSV
- METHOD_DESCRIPTION: Radioligand displacement binding, [3H]mesulergine, HeLa-5-HT2C cell membranes
- CONDITION_CONTEXT: Ki 5-HT2C, [3H]mesulergine displacement; mean ± range of two independent assays
Entries annotated with measured pKi
In textbook form, pKi equals minus log to base ten of the concentration in mol/L.

Query string: Look up pKi for this compound: CC(N)Cc1ccc2oc3ccccc3c2c1.Cl (stereo not shown) [Compound 2]
Result string: 6.32

Others:
Query string: Entry Cl.NCCc1ccc2oc3ccccc3c2c1 [Compound 1] : reported pKi = ?
Result string: 6.13

Query string: Continue with Cl.NCCc1cccc2c1oc1ccccc12 [Compound 4]
Result string: 6.85

Query string: Now this one: COc1cc2c(cc1CCN)oc1ccccc12.Cl [Compound 3]
Result string: 6.69

* * *

Known Ki of a selection of compounds
- MEASURED_ON: human 5-HT2A receptor (Homo sapiens)
- Sequence (P28223 whole entry): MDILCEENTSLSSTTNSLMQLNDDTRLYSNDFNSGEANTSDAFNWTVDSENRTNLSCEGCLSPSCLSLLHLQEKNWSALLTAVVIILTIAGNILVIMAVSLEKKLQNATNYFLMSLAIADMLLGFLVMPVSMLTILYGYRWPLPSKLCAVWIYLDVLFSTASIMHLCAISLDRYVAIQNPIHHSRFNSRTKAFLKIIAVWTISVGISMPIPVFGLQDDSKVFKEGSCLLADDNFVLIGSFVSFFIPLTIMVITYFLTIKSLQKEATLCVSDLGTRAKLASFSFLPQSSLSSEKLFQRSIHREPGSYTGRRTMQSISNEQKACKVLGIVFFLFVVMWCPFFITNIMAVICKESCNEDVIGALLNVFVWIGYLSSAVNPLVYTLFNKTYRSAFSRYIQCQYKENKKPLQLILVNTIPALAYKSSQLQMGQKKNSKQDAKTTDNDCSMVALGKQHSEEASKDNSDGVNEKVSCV

Worked cases, Ki given:
Query string: Could you share which Ki value was measured for Cl.NCCc1cccc2c1oc1ccccc12 [Compound 4] ?
Result string: > 10 µM

Query string: Next up: CC(N)Cc1ccc2oc3ccccc3c2c1.Cl (centres unmarked) [Compound 2]
Result string: > 10 µM

Query string: Same again, this time with Cl.NCCc1ccc2oc3ccccc3c2c1 [Compound 1]
Result string: > 10 µM

New cases:
Query string: Which Ki is listed for COc1cc2c(cc1CCN)oc1ccccc12.Cl [Compound 3] ?
Result string: > 10 µM

Query string: Item: COc1ccc2oc3ccccc3c2c1CCN.Cl [Compound 5]
Result string: 2.55 µM

* * *

Here, each record is paired with measured Emax at 100 µM data.
- MEASURED_ON: human 5-HT2A receptor (Homo sapiens)
- METHOD_DESCRIPTION: Functional Ca2+ mobilization fluorescence assay in CHO-5-HT2A cells
- Type: cell-based
- CONDITION_CONTEXT: read-out: % Emax 5-HT2A, % maximum response (5-HT) at 100 μM
Report as a plain number; the unit % is understood.

Please review the following examples before continuing.
Query string: Any idea what Emax at 100 µM was measured for CC(N)Cc1ccc2oc3ccccc3c2c1.Cl (stereo not shown) ?
Result string: 64

Query string: And what about the compound `Cl.NCCc1ccc2oc3ccccc3c2c1` ?
Result string: 66.1

Query string: Thanks! And `COc1cc2c(cc1CCN)oc1ccccc12.Cl` ?
Result string: 58.2

Here is the next item to consider.
Query string: I'd like to know its Emax at 100 µM. The compound in question is `COc1ccc2oc3ccccc3c2c1CCN.Cl`
Result string: 59

* * *

// reported 5-HT2A/2C for each item listed
- MEASURED_ON: human 5-HT2C receptor (Homo sapiens)
- METHOD_DESCRIPTION: Radioligand displacement binding, [3H]mesulergine, HeLa-5-HT2C cell membranes
- CONDITION_CONTEXT: ratio of Ki 5-HT2A / Ki 5-HT2C

In the examples that follow, each entry is paired with its recorded 5-HT2A/2C.
Query string: Could you tell me which 5-HT2A/2C is on file for CC(N)Cc1ccc2oc3ccccc3c2c1.Cl (centres unmarked) ?
Result string: > > 21

Query string: What do we get for `Cl.NCCc1ccc2oc3ccccc3c2c1` ?
Result string: > > 14

Query string: What would you report for `Cl.NCCc1cccc2c1oc1ccccc12` ?
Result string: > 71

Query string: Now the same for `COc1ccc2oc3ccccc3c2c1CCN.Cl`
Result string: 72

Now turn to the next molecule.
Query string: Need 5-HT2A/2C of `COc1cc2c(cc1CCN)oc1ccccc12.Cl` , thanks.
Result string: > 49

* * *

As shown below, each of these compounds has a reported pEC50 value.
- MEASURED_ON: human 5-HT2A receptor (Homo sapiens)
- METHOD_DESCRIPTION: Functional Ca2+ mobilization fluorescence assay in CHO-5-HT2A cells
# reply with the number alone; pEC50 is -log10 of concentration in mol/L

Worked examples, 3 compounds total:
Query string: Given the entry `COc1cc2c(cc1CCN)oc1ccccc12.Cl` , report its measured pEC50.
Result string: 4.49

Query string: How about this compound: `Cl.NCCc1cccc2c1oc1ccccc12`
Result string: 5.48

Query string: Repeat with `COc1ccc2oc3ccccc3c2c1CCN.Cl`
Result string: 4.84

We next turn to a different compound, shown below.
Query string: What measured pEC50 goes with `Cl.NCCc1ccc2oc3ccccc3c2c1` ?
Result string: 4.65

* * *

- MEASURED_ON: human 5-HT2C receptor (Homo sapiens)
- METHOD_DESCRIPTION: Functional Ca2+ mobilization fluorescence assay in HeLa-5-HT2C cells
// values below are reported pEC50
pEC50 field: float, defined as -log10 of concentration (mol/L).

Look over these answered cases.
Query string: What value of measured pEC50 is listed for COc1cc2c(cc1CCN)oc1ccccc12.Cl [Compound 3] ?
Result string: 4.27

Query string: // next record CC(N)Cc1ccc2oc3ccccc3c2c1.Cl (stereo not shown) [Compound 2]
Result string: 5.45

Query string: Please do the same for COc1ccc2oc3ccccc3c2c1CCN.Cl [Compound 5] as well.
Result string: 6.65

Query compound follows.
Query string: For Cl.NCCc1cccc2c1oc1ccccc12 [Compound 4] , what is its reported pEC50?
Result string: 5.86

From: paper PMC7016908
